MEASUREMENT PARAMETERS: in ethyl acetate, 293.15 K
REPORTED PROPERTY: solubility (mole fraction)
Write the value as a bare number.

Notebook: C[C@@H](O)[C@H]1C(=O)N2C(C(=O)[O-])=C(SC3Cn4cnc[n+]4C3)[C@H](C)[C@H]12 (stereo partly specified) , solubility (mole fraction) read as 6.48e-05

----------
MEASUREMENT PARAMETERS: in ethyl acetate, 313.15 K
REPORTED PROPERTY: solubility (mole fraction)

Notebook: C[C@@H](O)[C@H]1C(=O)N2C(C(=O)[O-])=C(SC3Cn4cnc[n+]4C3)[C@H](C)[C@H]12 (stereo partly specified) , solubility (mole fraction) read as 9.93e-05

From: BigSolDB 2.1
